Below is a list of entries, each paired with its recorded IC50 value.
Molecular target: canine TRPM8 (Canis lupus familiaris, UniProt Q1A7N1)
Sequence (Q1A7N1 1-1104): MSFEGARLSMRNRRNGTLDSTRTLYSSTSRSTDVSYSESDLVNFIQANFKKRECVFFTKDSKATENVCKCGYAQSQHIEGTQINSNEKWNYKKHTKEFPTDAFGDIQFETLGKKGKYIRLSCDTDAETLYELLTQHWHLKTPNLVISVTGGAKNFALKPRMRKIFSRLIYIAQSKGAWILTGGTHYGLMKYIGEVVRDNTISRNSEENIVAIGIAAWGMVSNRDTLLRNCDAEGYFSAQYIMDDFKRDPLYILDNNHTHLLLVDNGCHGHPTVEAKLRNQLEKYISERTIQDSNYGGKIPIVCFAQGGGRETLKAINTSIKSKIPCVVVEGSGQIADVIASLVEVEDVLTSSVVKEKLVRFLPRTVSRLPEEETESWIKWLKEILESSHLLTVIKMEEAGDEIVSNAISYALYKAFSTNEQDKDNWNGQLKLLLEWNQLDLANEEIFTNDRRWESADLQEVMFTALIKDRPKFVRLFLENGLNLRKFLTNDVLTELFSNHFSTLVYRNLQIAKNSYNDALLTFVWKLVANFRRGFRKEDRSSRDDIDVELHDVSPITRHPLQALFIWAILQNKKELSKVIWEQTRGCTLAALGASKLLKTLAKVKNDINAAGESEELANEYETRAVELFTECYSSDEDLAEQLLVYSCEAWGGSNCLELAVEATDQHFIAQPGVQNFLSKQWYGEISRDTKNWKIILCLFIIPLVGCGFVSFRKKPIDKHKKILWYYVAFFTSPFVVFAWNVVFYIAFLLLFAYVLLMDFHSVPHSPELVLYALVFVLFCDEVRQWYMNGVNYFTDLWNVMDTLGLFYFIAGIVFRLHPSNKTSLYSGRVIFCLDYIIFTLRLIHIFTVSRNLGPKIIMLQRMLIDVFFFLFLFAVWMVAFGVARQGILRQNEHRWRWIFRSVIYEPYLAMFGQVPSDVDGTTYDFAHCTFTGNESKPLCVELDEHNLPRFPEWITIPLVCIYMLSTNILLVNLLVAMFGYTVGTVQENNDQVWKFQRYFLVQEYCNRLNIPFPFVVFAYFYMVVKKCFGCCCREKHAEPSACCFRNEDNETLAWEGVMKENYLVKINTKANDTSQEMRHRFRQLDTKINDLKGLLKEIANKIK
Experiment: In Vitro Canine TRPM8 Functional Assay (Ca2+ fluorescence, icilin activation)
Format: cell-based
Conditions: HEK293 cells stably expressing canine TRPM8, icilin activation; average of two or more determinations; read-out: IC50
# value in µM; strip the unit string

Some solved cases for reference:
CCS(=O)(=O)N(Cc1ccc(F)c(OC)c1)c1sc2ccccc2c1C(C)=O [Compound 837]
0.015
Cc1c(N(CCCF)S(=O)(=O)c2ccc(F)c(F)c2)sc2ccccc12 [Compound 831]
0.05
CCS(=O)(=O)N(Cc1ccc(F)c(OC)c1)c1cc2ccccc2s1 [Compound 828]
0.0427
COCc1c(N(CCCF)S(=O)(=O)c2ccccc2)sc2ccccc12 [Compound 832]
0.088
Cc1c(N(Cc2ccc(F)c(C(F)(F)F)c2)S(=O)(=O)CCBr)sc2ccccc12 [Compound 797]
0.0048
Cc1c(N(CCC2CC2)S(=O)(=O)c2cnccc2-c2nnn[nH]2)sc2ccccc12 [Compound 804]
0.0111
Cc1c(N(Cc2ccc(F)cc2)S(=O)(=O)c2ccc(F)c(F)c2)sc2ccccc12 [Compound 826]
0.024
CCS(=O)(=O)N(Cc1ccnc(F)c1)c1sc2ccccc2c1C(C)O (centres unmarked) [Compound 835]
0.0551

What IC50 appears in the records for this compound with canine TRPM8 (Canis lupus familiaris, UniProt Q1A7N1)? Cc1c(N(Cc2ccc(OC(F)(F)F)cc2)S(=O)(=O)c2ccc(-c3noc(=O)[nH]3)cc2)sc2ccccc12 [Compound 801] 0.0028

Another compound to look at: C=C(C)c1c(N(Cc2cc(F)c(F)c(OC)c2F)S(=O)(=O)CC)sc2ccccc12 [Compound 803] 0.0308

All values here come from patent US9434711B2.
